experiment: Growth inhibition test of mouse FM3A cells; format: cell-based; conditions: mouse FM3A cells, 48 hours, cell count (Table 1); read-out: 50% growth inhibition concentration Cytotoxicity FM3A
property-measured: EC50 at 48 h
Give your result as the value with the unit written after it.

Sample CCN(CC)CCCC(C)Nc1ccnc2cc(Cl)ccc12 (stereo not shown) [chloroquine, reference compound] — what was its EC50 at 48 h?
32 µM

* * *

Overview of reported EC50 at 72 h across a group of molecules:
assay: Growth inhibition test of rat L6 cells; format: cell-based; settings: L6 cells (rat skeletal myoblast), Alamar Blue (Table 2), read-out: 50% growth inhibition concentration Cytotoxicity L6
# output: bare number, implied unit µM

smiles-str	EC50 at 72 h (µM)
CCN1CCS/C1=C\C=c1/s/c(=C\c2sc3c4ccccc4ccc3[n+]2CCO)n(CC)c1=O	53

Sample CCn1c(=O)/c(=C/C=C2\Sc3ccccc3N2C)s/c1=C\c1cccc[n+]1CCOCCOCCOC — what was its EC50 at 72 h?
44

Sample CCn1c(=O)/c(=C/C=C2\Sc3ccccc3N2C)s/c1=C\c1cccc[n+]1CCCCC(=O)O — what was its EC50 at 72 h?
17

Sample CCN1/C(=C/C=c2\s/c(=C\C3=[N+](CC)CCS3)n(CC)c2=O)C=Cc2ccccc21 — what was its EC50 at 72 h?
20
